For each entry below, report its pIC50 value.
# TARGET OF ASSAY: UniProt:P09391
# Sequence (P09391 1-276): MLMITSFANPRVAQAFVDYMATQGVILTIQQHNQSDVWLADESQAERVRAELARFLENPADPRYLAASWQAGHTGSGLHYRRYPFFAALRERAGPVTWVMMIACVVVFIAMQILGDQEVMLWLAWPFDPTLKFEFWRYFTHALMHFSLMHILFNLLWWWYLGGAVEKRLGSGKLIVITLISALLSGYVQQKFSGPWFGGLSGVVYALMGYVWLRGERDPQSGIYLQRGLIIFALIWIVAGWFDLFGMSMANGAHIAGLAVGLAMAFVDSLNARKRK
Numbers only, as −log10 of the molar value.

Below: 4 compounds and their reported pIC50.
O=C1CC(c2ccccc2)N1C(=O)Oc1ccccc1 (racemic) | 5.95
O=C1CC(c2ccccc2)N1C(=O)OC1CCCC1 (racemic) | 5.28
O=C1CC(c2ccccc2)N1C(=O)OCc1ccccc1 (centres unmarked) | 6.14
O=C1CC(c2ccccc2)N1C(=O)Oc1ccc(Cl)cc1 (centres unmarked) | 5.96

Measured pIC50 for this entry CC(C)COC(=O)N1C(=O)CC1c1ccccc1 (racemic) on UniProt:P09391: 4.93
